Source: ChEMBL document CHEMBL2321795

- Test system: Staphylococcus aureus
- assay-explanation: Antibacterial activity against methicillin-sensitive Staphylococcus aureus after 16 hrs by NCCLS agar dilution method
- Type: functional
measured-attribute: MIC
Answer by giving the amount and then stating its unit.

Before answering, review these 2 worked examples.
# compound, MIC
measured = [
    ("CN1C[C@@H](c2ccc(-c3ccc4c(c3)OC[C@H]3[C@H](CO)OC(=O)N43)cn2)OC1=O", "0.5 mg/L"),
    ("CC(=O)c1ccc(-c2ccc3c(c2)OC[C@H]2[C@H](CO)OC(=O)N32)cn1", "2 mg/L"),
]

Query :: Record request: MIC value, item `CN1CCN(c2ccc(-c3ccc4c(c3)OC[C@H]3[C@H](CO)OC(=O)N43)cn2)CC1`
Result :: 2 mg/L

Query :: Record request: MIC value, item O=C1O[C@@H](CO)[C@@H]2COc3cc(-c4ccc(C(O)CO)nc4)ccc3N12 (stereo partly specified)
Result :: 0.5 mg/L

Query :: Record request: MIC value, item `O=C1O[C@@H](CO)[C@@H]2COc3cc(-c4ccc(CO)nc4)ccc3N12`
Result :: 1 mg/L

Query :: Record request: MIC value, item `CN1CCC(Oc2ccc(-c3ccc4c(c3)OC[C@H]3[C@H](CO)OC(=O)N43)cn2)CC1`
Result :: 4 mg/L

====

Each entry below lists one item and its recorded MIC value.
- System: Staphylococcus aureus
- assay-explanation: Antibacterial activity against linezolid-resistant Staphylococcus aureus after 16 hrs by NCCLS agar dilution method
- Type: functional
Unit µg/mL implied. Number only.

Before answering, review these 5 worked examples.
# molecule, measured-attribute, observed
rows = [
    ("O=C1OCCN1c1ccc(-c2ccc3c(c2)OC[C@H]2[C@H](CO)OC(=O)N32)cn1", "MIC", 16),
    ("CN1C[C@@H](c2ccc(-c3ccc4c(c3)OC[C@H]3[C@H](CO)OC(=O)N43)cn2)OC1=O", "MIC", 4),
    ("C[C@@H](O)C(=O)c1ccc(-c2ccc3c(c2)OC[C@H]2[C@H](CO)OC(=O)N32)cn1", "MIC", 8),
    ("Cn1nnc(-c2ccc(-c3ccc(N4C[C@H](CO)OC4=O)cc3F)cn2)n1", "MIC", 8),
    ("O=C1O[C@@H](CO)[C@@H]2COc3cc(-c4ccc(Cn5cncn5)nc4)ccc3N12", "MIC", 16),
]

Query :: Give MIC (Staphylococcus aureus) of the following molecule: `N#Cc1ccc(-c2ccc3c(c2)OC[C@H]2[C@H](CO)OC(=O)N32)cn1`
Result :: 4

Query :: Give MIC (Staphylococcus aureus) of the following molecule: O=C1O[C@@H](CO)[C@@H]2COc3cc(-c4ccc(C(O)CO)nc4)ccc3N12 (some centres undefined)
Result :: 16

Query :: Give MIC (Staphylococcus aureus) of the following molecule: O=C1OC(CO)CN1c1ccc(-c2ccc3c(c2)OC[C@H]2[C@H](CO)OC(=O)N32)cn1 (some centres undefined)
Result :: 8

====

- assay-explanation: AUC in Sprague-Dawley rat at 50 mg/kg, po by LC-MS analysis
- Assay type: ADME, organism-based
- Parameters: dose 50 mg/kg, route oral
- condition-set: plasma
measured-attribute: AUC (ng·h/mL)
Unit ng·h/mL implied. Number only.

Query :: Record request: AUC value, item `N#Cc1ccc(-c2ccc3c(c2)OC[C@H]2[C@H](CO)OC(=O)N32)cn1`
Result :: 33400
